Details: in 2-ethoxyethanol, 358.29 K
Quantity Kind: solubility (mole fraction)
I'd appreciate a reply containing only the number, no unit.

Fill in the blank: the reported solubility (mole fraction) of O=P(O)(c1ccccc1)c1ccccc1 is ____. 0.036

====

Conditions: in toluene, 352.95 K
Quantity Kind: solubility (mole fraction)
I'd appreciate a reply containing only the number, no unit.

Fill in the blank: the reported solubility (mole fraction) of O=P(O)(c1ccccc1)c1ccccc1 is ____. 0.00462

====

Conditions: in isopropanol, 342.94 K
Quantity Kind: solubility (mole fraction)

Fill in the blank: the reported solubility (mole fraction) of O=P(O)(c1ccccc1)c1ccccc1 is ____. 0.0223
